# key: entry, value: Ddx58 1456890_at (Group G1, Modules 20)
system: preferentially upregulated genes in LV, SP, LN; experiment: Z-score-based differential gene expression analysis (adjuvant group- or adjuvant-associated genes, 40 module mapping, TargetMine annotation); assay type: in vivo, C57BL/6 mice; conditions: ID, LV, sample x1
reported metric: Ddx58 1456890_at (Group G1, Modules 20)

[[record]]
compound = "Nc1nc2c(ncn2[C@@H]2O[C@@H]3COP(=O)(O)O[C@H]4[C@@H](O)[C@H](n5cnc6c(=O)[nH]c(N)nc65)O[C@@H]4COP(=O)(O)O[C@H]3[C@H]2O)c(=O)[nH]1 [cdiGMP, Cyclic diguanylate monophosphate]"
experimental_system = "preferentially upregulated genes in LV, SP, LN"
reported = 1.2

[[record]]
compound = "Nc1nc2c(ncn2[C@@H]2O[C@@H]3COP(=O)(O)O[C@H]4[C@@H](O)[C@H](n5cnc6c(N)ncnc65)O[C@@H]4COP(=O)(O)O[C@@H]2[C@@H]3O)c(=O)[nH]1 [cGAMP, Cyclic [G(2′,5′)pA(3′,5′)p]]"
experimental_system = "preferentially upregulated genes in LV, SP, LN"
reported = 2.26

[[record]]
compound = "CCOCc1nc2c(N)nc3ccccc3c2n1CC(C)(C)O"
experimental_system = "preferentially upregulated genes in LV, SP, LN"
reported = 2.42

[[record]]
compound = "Cc1ccc2c(=O)c3cccc(CC(=O)O)c3oc2c1C"
experimental_system = "preferentially upregulated genes in LV, SP, LN"
reported = 1.67


---

system: adjuvant-associated biological themes in LV, SP, LN; settings: LV, ID
reported metric: GO annotation: regulation of apoptotic signaling pathway (Term: apoptosis)

[[record]]
compound = "Cc1ccc2c(=O)c3cccc(CC(=O)O)c3oc2c1C [DMXAA, 5,6-dimethylxanthenone-4-acetic acid]"
experimental_system = "adjuvant-associated biological themes in LV, SP, LN"
reported = 0

[[record]]
compound = "Nc1nc2c(ncn2[C@@H]2O[C@@H]3COP(=O)(O)O[C@H]4[C@@H](O)[C@H](n5cnc6c(=O)[nH]c(N)nc65)O[C@@H]4COP(=O)(O)O[C@H]3[C@H]2O)c(=O)[nH]1 [cdiGMP, Cyclic diguanylate monophosphate]"
experimental_system = "adjuvant-associated biological themes in LV, SP, LN"
reported = 0

[[record]]
compound = "Nc1nc2c(ncn2[C@@H]2O[C@@H]3COP(=O)(O)O[C@H]4[C@@H](O)[C@H](n5cnc6c(N)ncnc65)O[C@@H]4COP(=O)(O)O[C@@H]2[C@@H]3O)c(=O)[nH]1 [cGAMP, Cyclic [G(2′,5′)pA(3′,5′)p]]"
experimental_system = "adjuvant-associated biological themes in LV, SP, LN"
reported = 0


---

system: adjuvant-associated biological themes in LV, SP, LN; details: LV, ID
# key: entry, value: interleukin-12: regulation of interleukin-12 production
reported metric: interleukin-12: regulation of interleukin-12 production

[[record]]
compound = "Cc1ccc2c(=O)c3cccc(CC(=O)O)c3oc2c1C [DMXAA, 5,6-dimethylxanthenone-4-acetic acid]"
reported = 0

[[record]]
compound = "CCOCc1nc2c(N)nc3ccccc3c2n1CC(C)(C)O [R848]"
reported = 0

[[record]]
compound = "Nc1nc2c(ncn2[C@@H]2O[C@@H]3COP(=O)(O)O[C@H]4[C@@H](O)[C@H](n5cnc6c(N)ncnc65)O[C@@H]4COP(=O)(O)O[C@@H]2[C@@H]3O)c(=O)[nH]1 [cGAMP, Cyclic [G(2′,5′)pA(3′,5′)p]]"
reported = 0

[[record]]
compound = "CC(O)COC[C@H]1O[C@@H]2O[C@H]3[C@H](O)[C@@H](O)[C@@H](O[C@H]4[C@H](O)[C@@H](O)[C@@H](O[C@H]5[C@H](O)[C@@H](O)[C@@H](O[C@H]6[C@H](O)[C@@H](O)[C@@H](O[C@H]7[C@H](O)[C@@H](O)[C@@H](O[C@H]8[C@H](O)[C@@H](O)[C@@H](O[C@H]1[C@H](O)[C@H]2O)O[C@@H]8COCC(C)O)O[C@@H]7COCC(C)O)O[C@@H]6COCC(C)O)O[C@@H]5COCC(C)O)O[C@@H]4COCC(C)O)O[C@@H]3COCC(C)O (stereo partly drawn) [bCD, Hydroxypropyl-beta-cyclodextrin]"
reported = 0

[[record]]
compound = "Nc1nc2c(ncn2[C@@H]2O[C@@H]3COP(=O)(O)O[C@H]4[C@@H](O)[C@H](n5cnc6c(=O)[nH]c(N)nc65)O[C@@H]4COP(=O)(O)O[C@H]3[C@H]2O)c(=O)[nH]1 [cdiGMP, Cyclic diguanylate monophosphate]"
reported = 6.99


---

# key: entry, value: Number of gene probes with statistically significant changes (sDEGs), LN, Down
system: inguinal lymph nodes (LN); assay: Whole organ transcriptome (GeneChip microarray) of draining inguinal lymph nodes 6 h after adjuvant administration: sDEGs, gene modules, hierarchical clustering; assay type: in vivo, C57BL/6 mice; settings: i.d. administration; lymph node; fold change <0.667, p<0.01, customized PA call=1; 6 h after adjuvant
reported metric: Number of gene probes with statistically significant changes (sDEGs), LN, Down

[[record]]
compound = "Cc1ccc2c(=O)c3cccc(CC(=O)O)c3oc2c1C"
reported = 261

[[record]]
compound = "CC(O)COC[C@H]1O[C@@H]2O[C@H]3[C@H](O)[C@@H](O)[C@@H](O[C@H]4[C@H](O)[C@@H](O)[C@@H](O[C@H]5[C@H](O)[C@@H](O)[C@@H](O[C@H]6[C@H](O)[C@@H](O)[C@@H](O[C@H]7[C@H](O)[C@@H](O)[C@@H](O[C@H]8[C@H](O)[C@@H](O)[C@@H](O[C@H]1[C@H](O)[C@H]2O)O[C@@H]8COCC(C)O)O[C@@H]7COCC(C)O)O[C@@H]6COCC(C)O)O[C@@H]5COCC(C)O)O[C@@H]4COCC(C)O)O[C@@H]3COCC(C)O (stereo partly drawn) [bCD, Hydroxypropyl-beta-cyclodextrin]"
reported = 110

[[record]]
compound = "Nc1nc2c(ncn2[C@@H]2O[C@@H]3COP(=O)(O)O[C@H]4[C@@H](O)[C@H](n5cnc6c(=O)[nH]c(N)nc65)O[C@@H]4COP(=O)(O)O[C@H]3[C@H]2O)c(=O)[nH]1"
reported = 908

[[record]]
compound = "Nc1nc2c(ncn2[C@@H]2O[C@@H]3COP(=O)(O)O[C@H]4[C@@H](O)[C@H](n5cnc6c(N)ncnc65)O[C@@H]4COP(=O)(O)O[C@@H]2[C@@H]3O)c(=O)[nH]1 [cGAMP, Cyclic [G(2′,5′)pA(3′,5′)p]]"
reported = 255


---

# key: entry, value: Pml 1456103_at (Group G1, Modules 20)
tested on: preferentially upregulated genes in LV, SP, LN; assay: Z-score-based differential gene expression analysis (adjuvant group- or adjuvant-associated genes, 40 module mapping, TargetMine annotation); format: in vivo, C57BL/6 mice; conditions: ID, LV, sample x3
reported metric: Pml 1456103_at (Group G1, Modules 20)

[[record]]
compound = "CCOCc1nc2c(N)nc3ccccc3c2n1CC(C)(C)O"
reported = 1.29

[[record]]
compound = "Cc1ccc2c(=O)c3cccc(CC(=O)O)c3oc2c1C"
reported = 0.34

[[record]]
compound = "Nc1nc2c(ncn2[C@@H]2O[C@@H]3COP(=O)(O)O[C@H]4[C@@H](O)[C@H](n5cnc6c(N)ncnc65)O[C@@H]4COP(=O)(O)O[C@@H]2[C@@H]3O)c(=O)[nH]1 [cGAMP, Cyclic [G(2′,5′)pA(3′,5′)p]]"
reported = 1.62

[[record]]
compound = "Nc1nc2c(ncn2[C@@H]2O[C@@H]3COP(=O)(O)O[C@H]4[C@@H](O)[C@H](n5cnc6c(=O)[nH]c(N)nc65)O[C@@H]4COP(=O)(O)O[C@H]3[C@H]2O)c(=O)[nH]1 [cdiGMP, Cyclic diguanylate monophosphate]"
reported = 2.58


---

system: adjuvant-associated biological themes in LV, SP, LN; conditions: LV, ID
reported metric: GO annotation: defense response (Term: defense response)

[[record]]
compound = "CC(O)COC[C@H]1O[C@@H]2O[C@H]3[C@H](O)[C@@H](O)[C@@H](O[C@H]4[C@H](O)[C@@H](O)[C@@H](O[C@H]5[C@H](O)[C@@H](O)[C@@H](O[C@H]6[C@H](O)[C@@H](O)[C@@H](O[C@H]7[C@H](O)[C@@H](O)[C@@H](O[C@H]8[C@H](O)[C@@H](O)[C@@H](O[C@H]1[C@H](O)[C@H]2O)O[C@@H]8COCC(C)O)O[C@@H]7COCC(C)O)O[C@@H]6COCC(C)O)O[C@@H]5COCC(C)O)O[C@@H]4COCC(C)O)O[C@@H]3COCC(C)O (stereo partly drawn) [bCD, Hydroxypropyl-beta-cyclodextrin]"
reported = 8.51

[[record]]
compound = "Nc1nc2c(ncn2[C@@H]2O[C@@H]3COP(=O)(O)O[C@H]4[C@@H](O)[C@H](n5cnc6c(N)ncnc65)O[C@@H]4COP(=O)(O)O[C@@H]2[C@@H]3O)c(=O)[nH]1 [cGAMP, Cyclic [G(2′,5′)pA(3′,5′)p]]"
reported = 62.7

[[record]]
compound = "Cc1ccc2c(=O)c3cccc(CC(=O)O)c3oc2c1C"
reported = 48.4

[[record]]
compound = "Nc1nc2c(ncn2[C@@H]2O[C@@H]3COP(=O)(O)O[C@H]4[C@@H](O)[C@H](n5cnc6c(=O)[nH]c(N)nc65)O[C@@H]4COP(=O)(O)O[C@H]3[C@H]2O)c(=O)[nH]1 [cdiGMP, Cyclic diguanylate monophosphate]"
reported = 80.9

